The reported numbers originate from ChEMBL document CHEMBL3120136.

# ASSAY_INFO: Oral bioavailability in monkey liver
# Format: ADME, organism-based, Macaca mulatta
# STUDY_CONDITIONS: rhesus monkey
REPORTED_ENDPOINT: bioavailability

The molecule identified as CC(C)(C)OC(=O)N[C@H]1CCCCC/C=C\[C@@H]2C[C@@]2(C(=O)NS(=O)(=O)C2CC2)NC(=O)[C@@H]2C[C@@H](OC(=O)N3Cc4cccc(F)c4C3)CN2C1=O registered its bioavailability at 78%

---

# ASSAY_INFO: Inhibition of Hepatitis C virus full-length NS3/4A protease assessed as quenched-fluorogenic RET-S1 substrate cleavage incubated for 10 mins prior to substrate addition by FRET analysis
# Parameters: species or system Hepacivirus hominis
REPORTED_ENDPOINT: IC50 (nM)
Lab book: enter the figure in nM, no units written.

// solved cases for IC50 follow
SMILES_REPRESENTATION: CC(C)(C)OC(=O)N[C@H]1CCCCC/C=C\[C@@H]2C[C@@]2(C(=O)NS(=O)(=O)C2CC2)NC(=O)[C@@H]2C[C@@H](NC(=O)c3nc4cc(Cl)ccc4s3)CN2C1=O
IC50 [nM]: 5.2
--
SMILES_REPRESENTATION: CC(C)(C)OC(=O)N[C@H]1CCCCC/C=C\[C@@H]2C[C@@]2(C(=O)O)NC(=O)[C@@H]2C[C@@H](OC(=O)N3Cc4ccc(F)cc4C3)CN2C1=O
IC50 [nM]: 38
--
SMILES_REPRESENTATION: COCC1(S(=O)(=O)NC(=O)[C@@]23C[C@H]2/C=C\CCCCC[C@H](NC(=O)OC(C)(C)C)C(=O)N2C[C@H](OC(=O)N4Cc5ccccc5C4)C[C@H]2C(=O)N3)CC1
IC50 [nM]: 7.7

Recorded result, CC(C)(C)OC(=O)N[C@H]1CCCCC/C=C\[C@@H]2C[C@@]2(C(=O)NS(=O)(=O)C2CC2)NC(=O)[C@@H]2C[C@@H](Nc3nc4ccccc4o3)CN2C1=O , IC50: 21

IC50 in this record for O=C(N[C@H]1CCCCC/C=C\[C@@H]2C[C@@]2(C(=O)NS(=O)(=O)C2CC2)NC(=O)[C@@H]2C[C@@H](OC(=O)N3Cc4ccccc4C3)CN2C1=O)OCCF : 1.5

---

# ASSAY_INFO: Inhibition of Hepatitis C virus full-length NS3/4A protease assessed as quenched-fluorogenic RET-S1 substrate cleavage incubated for 10 mins prior to substrate addition by FRET analysis
# Parameters: species or system Hepacivirus hominis
*1 amine or outer side, *2 acyl side, *3 side chain or, on linkers, in order; H or OH if unused. Where a SMILES comes first, the peptide text is derived from it. Side-chain parts run from the residue outwards. [ ]: non-standard residue; d: D form. The star is where a group is joined. Ac3c(1R,2S-2-vinyl) = C=C[C@@H]1C[C@]1(N)C(=O)O; NH(1-naphthyl) = c1ccc2c(N*)cccc2c1; Hyp = O=C(O)[C@@H]1C[C@@H](O)CN1; Chg = N[C@H](C(=O)O)C1CCCCC1; CO = O=C([*:1])[*:2]
REPORTED_ENDPOINT: pIC50
Expect pIC50 as a plain number equal to -log10 of the molar concentration.

Worked examples, 3 compounds total:
COMPOUND: CC(C)(C)OC(=O)N[C@H]1CCCCC/C=C\[C@@H]2C[C@@]2(C(=O)NS(=O)(=O)c2cc(F)ccc2F)NC(=O)[C@@H]2C[C@@H](OC(=O)N3Cc4ccccc4C3)CN2C1=O
pIC50: 9.15
--
COMPOUND: C=C[C@@H]1C[C@]1(NC(=O)[C@@H]1C[C@@H](OC(=O)Nc2cccc3ccccc23)CN1C(=O)[C@@H](NC(=O)[C@@H](NC(C)=O)C1CCCCC1)C(C)C)C(=O)O (Ac-[Chg]V[Hyp]([CO-NH(1-naphthyl)])[Ac3c(1R,2S-2-vinyl)]-OH)
pIC50: 6.09
--
COMPOUND: CN(C)c1cccc2c1CCN(C(=O)O[C@@H]1C[C@H]3C(=O)N[C@]4(C(=O)NS(=O)(=O)C5CC5)C[C@H]4/C=C\CCCCC[C@H](NC(=O)OC(C)(C)C)C(=O)N3C1)C2
pIC50: 8.62

Consider CC(C)(C)NC(=O)N[C@H]1CCCCC/C=C\[C@@H]2C[C@@]2(C(=O)NS(=O)(=O)C2CC2)NC(=O)[C@@H]2C[C@@H](OC(=O)N3Cc4ccccc4C3)CN2C1=O . Its measured pIC50 is 8.62

The compound listed as CC(C)(C)OC(=O)N[C@H]1CCCCC/C=C\[C@@H]2C[C@@]2(C(=O)NS(=O)(=O)C2CC2)NC(=O)[C@@H]2C[C@@H](OC(=O)N3CCc4cccc(Cl)c4C3)CN2C1=O shows pIC50 equal to 8.68
